Values from paper PMC8432172

Form field: pIC50 (one value per entry).
# TARGET OR SYSTEM: hOCT2 (Homo sapiens)
# Sequence (O15244 1-555): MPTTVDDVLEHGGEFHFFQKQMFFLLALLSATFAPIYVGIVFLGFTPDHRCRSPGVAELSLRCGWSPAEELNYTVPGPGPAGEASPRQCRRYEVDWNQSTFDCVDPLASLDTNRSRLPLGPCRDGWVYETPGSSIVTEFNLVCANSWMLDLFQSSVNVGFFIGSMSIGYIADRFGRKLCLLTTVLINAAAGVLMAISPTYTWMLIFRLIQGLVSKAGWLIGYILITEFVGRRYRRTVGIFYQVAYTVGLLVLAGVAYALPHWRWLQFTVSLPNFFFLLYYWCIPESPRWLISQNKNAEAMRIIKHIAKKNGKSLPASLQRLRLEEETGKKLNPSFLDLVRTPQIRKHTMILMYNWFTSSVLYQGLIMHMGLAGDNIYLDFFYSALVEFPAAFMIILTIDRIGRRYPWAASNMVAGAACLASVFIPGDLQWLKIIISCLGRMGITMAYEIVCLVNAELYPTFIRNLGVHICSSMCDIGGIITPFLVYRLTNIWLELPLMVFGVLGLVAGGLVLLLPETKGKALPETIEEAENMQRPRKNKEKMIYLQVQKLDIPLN
# ASSAY SUMMARY: ASP+ uptake (saturation and inhibition) in hOCT2-MDCK cysts
# Type: cell-based
# Parameters: The full-length hOCT2 tagged at the carboxy-terminus with GFP (hOCT2-GFP); expressed in transfected cells; host or cells: MDCK II cells (ECACC 00062107), retroviral transduction with pQCXIH, grown as cysts in BME2
# TEST SETTINGS: hOCT2-MDCK cysts; 4 µM ASP+; 37 °C; read-out: IC50 for the inhibition of ASP+ uptake
# pIC50: negative log10 of molar concentration; output just the value

Task: I'd like to know its pIC50. The compound in question is CN(C)C(=N)N=C(N)N [Metformin, metformin]
Output: 3.05

Task: What about this compound? CCS(=O)(=O)N1CC(CC#N)(n2cc(-c3ncnc4[nH]ccc34)cn2)C1 [Baricitinib, baricitinib]
Output: 4.81

Task: What about this compound? CC[N+](CC)(CC)CC [TEA^+, tetraethylammonium]
Output: 4.67
